For each entry below, report its viability, T/C value.
Test system: 966289-007-R4-J1-PDC complex spheroid viability;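 further: spheroids exposed to agents for one week before readout; percent viability relative to DMSO vehicle control wells as 100%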
Protocol text: Anticancer human tumor 966289-007-R4-J1-PDC patient-derived pancreatic adenocarcinoma cell line growth inhibition [RAS]
Experimental parameters: second compound 0.1 µM; first compound 0.316 µM; hits give low values

Here's what some known entries look like.
{"Compound": "C=CC(=O)N1CCN(c2nc(OCC3CCCN3C)nc3c(F)c(-c4nc(N)cc(C)c4C(F)(F)F)c(Cl)cc23)C(C)C1 (stereo not drawn) + C#Cc1c(F)ccc2cc(O)cc(-c3ncc4c(N5CC6CCC(C5)N6)nc(OCC56CCCN5CC(F)C6)nc4c3F)c12", "viability, T/C": "83.8%"}
{"Compound": "O=C(c1ccc(F)c(F)c1Nc1ccc(I)cc1F)N1CC(O)([C@@H]2CCCCN2)C1 + C=CC(=O)N1CCN(c2nc(OCC3CCCN3C)nc3c(F)c(-c4nc(N)cc(C)c4C(F)(F)F)c(Cl)cc23)C(C)C1", "viability, T/C": "63.5%"}

Now look at this one.
Report viability, T/C, nothing else, for this compound: Cc1nc(N2CCC3(CC2)COC(C)C3N)c(CO)nc1Sc1ccnc(N)c1Cl (stereo not drawn) + C#Cc1c(F)ccc2cc(O)cc(-c3ncc4c(N5CC6CCC(C5)N6)nc(OCC56CCCN5CC(F)C6)nc4c3F)c12
103%
